Examples of molecules with documented δ/κ follow.
target: human κ opioid receptor (Homo sapiens); experiment: biochemical; format: biochemical; conditions: ratio of Ke values, selectivity for κ relative to δ
Sequence (P41145 whole entry): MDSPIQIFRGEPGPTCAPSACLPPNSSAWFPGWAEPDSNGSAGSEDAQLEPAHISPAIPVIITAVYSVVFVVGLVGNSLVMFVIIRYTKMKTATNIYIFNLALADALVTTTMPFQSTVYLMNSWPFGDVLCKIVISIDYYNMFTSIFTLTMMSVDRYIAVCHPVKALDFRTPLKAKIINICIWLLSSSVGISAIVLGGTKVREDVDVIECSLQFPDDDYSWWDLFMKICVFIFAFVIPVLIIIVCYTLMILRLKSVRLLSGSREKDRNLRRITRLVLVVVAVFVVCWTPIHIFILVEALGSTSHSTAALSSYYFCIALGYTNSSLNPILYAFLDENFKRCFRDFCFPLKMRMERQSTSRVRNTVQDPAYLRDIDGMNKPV

{"Molecule": "COC1CCN(C[C@@H](NC(=O)[C@H]2Cc3ccc(O)cc3CN2)C(C)C)CC1 [Compound 22]", "δ/κ": ">459"}
{"Molecule": "CC(C)[C@@H](CN1CCCCC1C)NC(=O)[C@H]1Cc2ccc(O)cc2CN1 (mixture of isomers) [Compound 14]", "δ/κ": ">199"}
{"Molecule": "CCN(CC)C[C@@H](NC(=O)[C@H]1Cc2ccc(O)cc2CN1)C(C)C [Compound 8]", "δ/κ": ">72"}
{"Molecule": "CC(C)[C@@H](CN1CCC(F)(F)CC1)NC(=O)[C@H]1Cc2ccc(O)cc2CN1 [Compound 24]", "δ/κ": ">254"}

Task item: Entry CC(C)[C@@H](CN1CCC(N(C)C)CC1)NC(=O)[C@H]1Cc2ccc(O)cc2CN1 [Compound 23] : reported δ/κ = ?
Reply: >371

Task item: Need δ/κ, item CC(C)[C@@H](CN1CCN(C)CC1)NC(=O)[C@H]1Cc2ccc(O)cc2CN1 [Compound 7]
Reply: >30

Task item: Consider the molecule shown here: CC1CCN(C[C@@H](NC(=O)[C@H](N)Cc2ccc(O)cc2)C(C)C)CC1 [Compound 36] What is its recorded δ/κ?
Reply: >8

Task item: Given CC(C)[C@@H](CN1CCC(C(F)(F)F)CC1)NC(=O)[C@H]1Cc2ccc(O)cc2CN1 [Compound 20] , state its recorded δ/κ.
Reply: >640
